# SYSTEM_TESTED: GST-CIB1 : F-scrambled peptide (Homo sapiens, UniProt Q99828)
# Construct: made in house; host or cells: BL-21 plus RIL cells (E. coli)
# Sequence (Q99828 whole entry): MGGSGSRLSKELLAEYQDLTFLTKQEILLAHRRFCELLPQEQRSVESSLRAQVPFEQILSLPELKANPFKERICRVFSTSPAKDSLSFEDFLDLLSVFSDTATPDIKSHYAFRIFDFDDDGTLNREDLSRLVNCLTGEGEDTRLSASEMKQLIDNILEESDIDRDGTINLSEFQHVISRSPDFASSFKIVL
# ASSAY_PROCEDURE: FP scrambled-peptide counter screen, 384-well format
# Type: binding
# PROTOCOL_CONDITIONS: F-scrambled peptide
PROPERTY: 384-well COUNTERSCREEN Efficacy (%)
State just the number; it will be interpreted in %.

Summary line: `O=C(Nc1nc(-c2ccccc2)cs1)c1ccncc1NS(=O)(=O)c1ccc(Cl)cc1.O=C(O)C(F)(F)F` , GST-CIB1 : F-scrambled peptide (Homo sapiens, UniProt Q99828), reported 384-well COUNTERSCREEN Efficacy (%) = 55

Hey, GST-CIB1 : F-scrambled peptide (Homo sapiens, UniProt Q99828) data for `CCc1ccc(/C=C2/SC(=S)NC2=O)cc1` : 384-well COUNTERSCREEN Efficacy (%) came out at 68

Form: item `COC(=O)[C@]12CCC(C)(C)C[C@H]1[C@H]1C(=O)C=C3[C@@]4(C)C=C(C#N)C(=O)C(C)(C)[C@@H]4CC[C@@]3(C)[C@]1(C)CC2` ; test system GST-CIB1 : F-scrambled peptide (Homo sapiens, UniProt Q99828); 384-well COUNTERSCREEN Efficacy (%): 29

// 384-well COUNTERSCREEN Efficacy (%) (GST-CIB1 : F-scrambled peptide (Homo sapiens, UniProt Q99828)) for O=c1[nH]sc2cc(Cl)ccc12 [NCGC00262908-01, ticlatone, reference compound] = 95

For `CCc1oc2ccccc2c1C(=O)c1cc(Br)c(O)c(Br)c1` on GST-CIB1 : F-scrambled peptide (Homo sapiens, UniProt Q99828), measured 384-well COUNTERSCREEN Efficacy (%) was 60

Short answer on GST-CIB1 : F-scrambled peptide (Homo sapiens, UniProt Q99828) for `COc1ccccc1C(=O)c1no[n+]([O-])c1C(=O)c1ccccc1OC.O=C(O)C(F)(F)F` , 384-well COUNTERSCREEN Efficacy (%): 34

Measured on GST-CIB1 : F-scrambled peptide (Homo sapiens, UniProt Q99828), `Cn1sc(=O)n(Cc2ccccc2)c1=O` has a documented 384-well COUNTERSCREEN Efficacy (%) of -20

Lab entry: GST-CIB1 : F-scrambled peptide (Homo sapiens, UniProt Q99828) assay, molecule `Cc1ccc(-c2cc(-c3nn(-c4nc(C(=O)O)cs4)c(CC4CC4)c3Cc3ccc(S(N)(=O)=O)c(F)c3)ccc2F)s1.Cl` , 384-well COUNTERSCREEN Efficacy (%) = 242

// returns 384-well COUNTERSCREEN Efficacy (%) for `CN1CCCN=C1/C=C/c1cccs1.O=C(O)c1cc2ccccc2c(Cc2c(O)c(C(=O)O)cc3ccccc23)c1O` with GST-CIB1 : F-scrambled peptide (Homo sapiens, UniProt Q99828); value = 40

Hey, GST-CIB1 : F-scrambled peptide (Homo sapiens, UniProt Q99828) data for `COc1nn(CSP(=S)(OC)OC)c(=O)s1` : 384-well COUNTERSCREEN Efficacy (%) came out at 60

Recorded 384-well COUNTERSCREEN Efficacy (%) for `Cc1ccc(S(=O)(=O)Nc2cc([N+](=O)[O-])ccc2C(=O)Nc2nc(-c3ccccc3)cs2)cc1.O=C(O)C(F)(F)F` on GST-CIB1 : F-scrambled peptide (Homo sapiens, UniProt Q99828) was 115

Value sought: 384-well COUNTERSCREEN Efficacy (%), system GST-CIB1 : F-scrambled peptide (Homo sapiens, UniProt Q99828), item CC[S+]([O-])c1nc(-c2cccc(OCc3ccccc3)c2)cc(C(F)(F)F)n1 (stereo not drawn) . Result: 30

I looked up `COc1ccc(CNC(=O)c2nc(S(=O)(=O)Cc3ccccc3)ncc2Cl)cc1.O=C(O)C(F)(F)F` and its 384-well COUNTERSCREEN Efficacy (%) for GST-CIB1 : F-scrambled peptide (Homo sapiens, UniProt Q99828) was 17

// 384-well COUNTERSCREEN Efficacy (%) (GST-CIB1 : F-scrambled peptide (Homo sapiens, UniProt Q99828)) for `Cc1ccc(S(=O)(=O)Nc2cnccc2C(=O)Nc2nc(-c3ccc4c(c3)CCCC4)cs2)cc1.O=C(O)C(F)(F)F` = 125

Response field 384-well COUNTERSCREEN Efficacy (%) (GST-CIB1 : F-scrambled peptide (Homo sapiens, UniProt Q99828)) for item `O=C(O)C1=CC(=C(c2ccc(O)c(C(=O)O)c2)c2ccc(O)c(C(=O)O)c2)C=CC1=O` : 15
